These entries and their values trace back to PubChem BioAssay (NCI).

Some compounds, each annotated with its measured TGI.
System: OVCAR-3 ovarian
Protocol Summary: NCI tumour cell line growth inhibition, 48 h

As a guide, the following entries are already answered.
Cc1ncc(CO)c(CN)c1O: > 100 µM
COc1cc2ccc1-c1cc(ccc1O)CC1c3cc4c(cc3CCN1C)Oc1c(OC)cc3c(c1O4)C(C2)N(C)CC3 (stereo not given): 3.93 µM
O=C1SC(c2ccc(Cl)cc2)(c2ccc(Cl)cc2)c2ccccc21: > 100 µM

Query string: // lookup TGI | system=OVCAR-3 ovarian | key= `CN(C)[C@@H]1C(=O)C(C(=O)NCNCCCC(=O)O)=C(O)[C@@]2(O)C(=O)C3=C(O)c4c(O)cccc4[C@@](C)(O)[C@H]3C[C@@H]12`
Result string: > 100 µM

Query string: // same read-out, input: `CN(C)c1nc(N(C)C)n2nc(-c3ccccc3[N+](=O)[O-])nc2n1`
Result string: > 100 µM
